# pIC50 annotations
- system_under_test: Beta-lactamase (Enterobacter cloacae)
- Sequence (P05364 whole entry): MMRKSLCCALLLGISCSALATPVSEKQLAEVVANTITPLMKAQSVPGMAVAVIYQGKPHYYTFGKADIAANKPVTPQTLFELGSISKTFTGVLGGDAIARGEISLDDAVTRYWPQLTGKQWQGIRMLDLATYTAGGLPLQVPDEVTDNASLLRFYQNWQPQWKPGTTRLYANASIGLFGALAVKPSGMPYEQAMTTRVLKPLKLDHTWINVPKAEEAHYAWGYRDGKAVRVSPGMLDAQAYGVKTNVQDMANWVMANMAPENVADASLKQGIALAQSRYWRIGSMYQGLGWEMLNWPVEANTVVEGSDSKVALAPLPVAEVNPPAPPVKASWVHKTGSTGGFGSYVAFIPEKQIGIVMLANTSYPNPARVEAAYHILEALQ
- protocol_text: Inhibition of Enterobacter cloacae AmpC
Please report pIC50 as the negative decimal logarithm of the molar concentration, giving only the number.

Check out these entries, answers already filled in.
Lab book: pIC50 of C/C=C1/C(=O)N2C(C(=O)O)=C3[C@@H](CCC[C@H]3OCC)[C@H]12 noted as 6.53

Noted for C/C=C1/C(=O)N2C(C(=O)O)=C3[C@@H](OCCCC)CCC[C@@H]3[C@H]12 : its pIC50 reads 6.14

response.value for C/C=C1/C(=O)N2C(C(=O)O)=C3[C@@H](OCCF)CCC[C@@H]3[C@H]12 (field: pIC50) = 5.99

Note to self: pIC50 recorded for C/C=C1/C(=O)N2C(C(=O)O)=C3[C@@H](OCCC#N)CCC[C@@H]3[C@H]12 was 6.68

The value of pIC50 measured for the compound C/C=C1/C(=O)N2C(C(=O)O)=C3[C@@H](OCC)CCC[C@@H]3[C@H]12 turned out to be 6.64

For reference, reported pIC50 for C/C=C1/C(=O)N2C(C(=O)O)=C3[C@@H](OC(C)C)CCC[C@@H]3[C@H]12 stands at 6.47

Please look at the following compound next.
compound C/C=C1/C(=O)N2C(C(=O)O)=C3[C@@H](CCC[C@H]3OCCCC)[C@H]12 , pIC50 observed: 6.37

* * *

- system_under_test: Beta-lactamase SHV-1 (Escherichia coli, UniProt P0AD63)
- Sequence (P0AD63 whole entry): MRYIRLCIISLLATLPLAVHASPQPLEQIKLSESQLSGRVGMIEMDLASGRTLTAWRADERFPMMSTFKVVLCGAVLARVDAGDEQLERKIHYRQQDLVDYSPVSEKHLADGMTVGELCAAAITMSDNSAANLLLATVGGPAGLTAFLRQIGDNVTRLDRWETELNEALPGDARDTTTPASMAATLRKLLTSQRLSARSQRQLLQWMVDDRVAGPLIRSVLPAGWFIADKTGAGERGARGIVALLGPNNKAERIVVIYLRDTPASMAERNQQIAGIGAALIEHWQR
- protocol_text: Inhibition of Escherichia coli SHV1
measure_name: IC50 (nM)
The answer is to be given in nM; state only the numeric part.

Solved entries:
For reference, reported IC50 for C/C=C1/C(=O)N2C(C(=O)O)=C3[C@@H](OC(C)C)CCC[C@@H]3[C@H]12 stands at 340

So for C/C=C1/C(=O)N2C(C(=O)O)=C3[C@@H](OCCCC)CCC[C@@H]3[C@H]12 , the logged IC50 turned out to be 206

Reported IC50 ( C/C=C1/C(=O)N2C(C(=O)O)=C3[C@@H](CCC[C@H]3OCCCC)[C@H]12 ) = 219

Next:
The compound listed as C/C=C1/C(=O)N2C(C(=O)O)=C3[C@@H](OCCF)CCC[C@@H]3[C@H]12 shows IC50 equal to 148

Form: compound = C/C=C1/C(=O)N2C(C(=O)O)=C3[C@@H](CCC[C@H]3OCC)[C@H]12 ; IC50 = 284

The recorded IC50 for entry C/C=C1/C(=O)N2C(C(=O)O)=C3[C@@H](OCC)CCC[C@@H]3[C@H]12 equals 385

Reported IC50 for C/C=C1/C(=O)N2C(C(=O)O)=C3[C@@H](OCCC#N)CCC[C@@H]3[C@H]12 was 152

* * *

Property: pIC50; scope: individual compounds
- system_under_test: Beta-lactamase TEM (Escherichia coli)
- Sequence (P62593 whole entry): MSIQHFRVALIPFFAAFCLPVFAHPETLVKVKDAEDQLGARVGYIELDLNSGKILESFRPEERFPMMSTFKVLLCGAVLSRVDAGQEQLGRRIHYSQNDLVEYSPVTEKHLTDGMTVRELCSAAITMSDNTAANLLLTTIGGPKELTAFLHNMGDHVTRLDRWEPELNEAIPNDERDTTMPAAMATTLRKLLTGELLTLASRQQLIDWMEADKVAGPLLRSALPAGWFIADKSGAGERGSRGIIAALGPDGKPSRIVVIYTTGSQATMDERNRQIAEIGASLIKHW
- protocol_text: Inhibition of Escherichia coli TEM1
Please express pIC50 as -log10 of the molar concentration.

Worked cases, answers included:
Measured pIC50 of C/C=C1/C(=O)N2C(C(=O)O)=C3[C@@H](OCCF)CCC[C@@H]3[C@H]12 : 7.68

Reported pIC50 for C/C=C1/C(=O)N2C(C(=O)O)=C3[C@@H](OC(C)C)CCC[C@@H]3[C@H]12 was 7.41

Given item C/C=C1/C(=O)N2C(C(=O)O)=C3[C@@H](CCC[C@H]3OCC)[C@H]12 , the value recorded as its pIC50 is 7.66

pIC50 measured on C/C=C1/C(=O)N2C(C(=O)O)=C3[C@@H](CCC[C@H]3OCCCC)[C@H]12 = 7.92

The recorded pIC50 for C/C=C1/C(=O)N2C(C(=O)O)=C3[C@@H](OCCC#N)CCC[C@@H]3[C@H]12 is 7.74

Entry C/C=C1/C(=O)N2C(C(=O)O)=C3[C@@H](OCC)CCC[C@@H]3[C@H]12 ; pIC50 = 7.24

---
Note to self: pIC50 recorded for C/C=C1/C(=O)N2C(C(=O)O)=C3[C@@H](OCCCC)CCC[C@@H]3[C@H]12 was 7.49
